Please go through the items and note down their percentage of the remaining compound.
- test method notes: pH stability of quenched linker-payloads in buffers (LCMS)
- Type: physicochemical
- assay conditions: DMSO, 4 hr, RT
In your response, the unit should come after the numeric value.

Name the recorded percentage of the remaining compound of the item CCCC1O[C@@H]2C[C@H]3[C@@H]4CCC5=CC(=O)C=C[C@]5(C)[C@H]4[C@@H](O)C[C@]3(C)[C@]2(C(=O)COC2CCCN2C(=O)CNC(=O)CCOCCOCCOCCOCCNC(=O)CCC(=O)N2Cc3ccccc3-c3c(nnn3CC3OC4OC5C(CO)OC(OC6C(CO)OC(OC7C(CO)OC(OC8C(CO)OC(OC9C(CO)OC(OC3C(O)C4O)C(O)C9O)C(O)C8O)C(O)C7O)C(O)C6O)C(O)C5O)-c3ccccc32)O1 (stereo partly shown) [Q2L6-PII-9] in your answer.
100%

Name the recorded percentage of the remaining compound of the item CCCC1O[C@@H]2C[C@H]3[C@@H]4CCC5=CC(=O)C=C[C@]5(C)[C@H]4[C@@H](O)C[C@]3(C)[C@]2(C(=O)COCN(C)C(=O)CNC(=O)OCc2ccc(NC(=O)[C@H](CCCNC(N)=O)NC(=O)[C@@H](NC(=O)CCOCCOCCOCCOCCNC(=O)CCC(=O)N3Cc4ccccc4-c4c(nnn4CCOCCOCCOCCOCCC(=O)NCCS(=O)(=O)O)-c4ccccc43)C(C)C)cc2)O1 (stereo partly shown) [Q1L1-PII-8] in your answer.
100%

Name the recorded percentage of the remaining compound of the item CC(C)[C@H](NC(=O)CCOCCOCCOCCOCCNC(=O)CCC(=O)N1Cc2ccccc2-c2c(nnn2CCOCCOCCOCCOCCC(=O)NCCS(=O)(=O)O)-c2ccccc21)C(=O)N[C@@H](CCCNC(N)=O)C(=O)Nc1ccc(COC(=O)NCC(=O)NCOCC(=O)[C@@]2(O)[C@H](C)C[C@H]3[C@@H]4CCC5=CC(=O)C=C[C@]5(C)[C@@]4(F)[C@@H](O)C[C@@]32C)cc1 [Q1L1-PI] in your answer.
100%

Name the recorded percentage of the remaining compound of the item CCCC1O[C@@H]2C[C@H]3[C@@H]4CCC5=CC(=O)C=C[C@]5(C)[C@H]4[C@@H](O)C[C@]3(C)[C@]2(C(=O)COCNC(=O)CNC(=O)CCC(=O)N2Cc3ccccc3-c3c(nnn3CC3OC4OC5C(CO)OC(OC6C(CO)OC(OC7C(CO)OC(OC8C(CO)OC(OC9C(CO)OC(OC3C(O)C4O)C(O)C9O)C(O)C8O)C(O)C7O)C(O)C6O)C(O)C5O)-c3ccccc32)O1 (stereo partly shown) [Q2L7-PII-1] in your answer.
97%

// provenance: patent US20230119539A1
